- TARGET_DESC: LFA-1 binding to immobilized ICAM-1 (Homo sapiens, UniProt P05107+P20701)
- Construct: made in house; host or cells: transfected 293 cells (LFA-1)
- Sequence (P20701 26-1170): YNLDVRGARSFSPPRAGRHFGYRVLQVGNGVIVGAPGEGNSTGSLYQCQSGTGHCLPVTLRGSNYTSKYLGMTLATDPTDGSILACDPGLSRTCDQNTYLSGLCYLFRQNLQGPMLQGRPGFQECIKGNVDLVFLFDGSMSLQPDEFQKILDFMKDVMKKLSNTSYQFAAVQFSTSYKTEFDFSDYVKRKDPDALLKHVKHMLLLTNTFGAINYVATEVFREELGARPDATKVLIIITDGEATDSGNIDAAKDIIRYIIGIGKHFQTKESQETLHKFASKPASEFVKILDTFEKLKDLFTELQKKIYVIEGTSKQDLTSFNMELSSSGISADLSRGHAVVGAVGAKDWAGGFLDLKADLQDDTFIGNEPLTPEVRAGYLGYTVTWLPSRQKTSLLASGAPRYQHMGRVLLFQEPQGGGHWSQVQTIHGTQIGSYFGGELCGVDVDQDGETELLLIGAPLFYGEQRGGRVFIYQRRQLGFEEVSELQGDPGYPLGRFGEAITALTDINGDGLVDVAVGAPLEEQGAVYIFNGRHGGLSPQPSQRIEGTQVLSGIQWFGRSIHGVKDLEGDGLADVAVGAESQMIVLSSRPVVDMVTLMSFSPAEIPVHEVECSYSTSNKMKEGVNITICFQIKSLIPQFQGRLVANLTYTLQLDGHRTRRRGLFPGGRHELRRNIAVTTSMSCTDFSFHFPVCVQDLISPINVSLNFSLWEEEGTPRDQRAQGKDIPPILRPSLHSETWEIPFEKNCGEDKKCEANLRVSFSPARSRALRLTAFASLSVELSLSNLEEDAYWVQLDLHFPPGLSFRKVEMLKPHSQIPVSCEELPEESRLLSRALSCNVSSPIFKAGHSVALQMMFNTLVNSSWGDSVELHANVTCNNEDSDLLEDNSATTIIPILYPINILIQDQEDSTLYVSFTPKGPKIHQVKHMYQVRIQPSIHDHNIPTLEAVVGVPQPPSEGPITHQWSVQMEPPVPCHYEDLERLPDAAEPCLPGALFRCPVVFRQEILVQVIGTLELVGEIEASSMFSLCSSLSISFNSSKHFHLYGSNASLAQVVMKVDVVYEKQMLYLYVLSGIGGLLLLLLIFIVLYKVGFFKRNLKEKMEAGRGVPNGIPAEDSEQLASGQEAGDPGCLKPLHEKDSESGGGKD
- Sequence (P05107 23-769): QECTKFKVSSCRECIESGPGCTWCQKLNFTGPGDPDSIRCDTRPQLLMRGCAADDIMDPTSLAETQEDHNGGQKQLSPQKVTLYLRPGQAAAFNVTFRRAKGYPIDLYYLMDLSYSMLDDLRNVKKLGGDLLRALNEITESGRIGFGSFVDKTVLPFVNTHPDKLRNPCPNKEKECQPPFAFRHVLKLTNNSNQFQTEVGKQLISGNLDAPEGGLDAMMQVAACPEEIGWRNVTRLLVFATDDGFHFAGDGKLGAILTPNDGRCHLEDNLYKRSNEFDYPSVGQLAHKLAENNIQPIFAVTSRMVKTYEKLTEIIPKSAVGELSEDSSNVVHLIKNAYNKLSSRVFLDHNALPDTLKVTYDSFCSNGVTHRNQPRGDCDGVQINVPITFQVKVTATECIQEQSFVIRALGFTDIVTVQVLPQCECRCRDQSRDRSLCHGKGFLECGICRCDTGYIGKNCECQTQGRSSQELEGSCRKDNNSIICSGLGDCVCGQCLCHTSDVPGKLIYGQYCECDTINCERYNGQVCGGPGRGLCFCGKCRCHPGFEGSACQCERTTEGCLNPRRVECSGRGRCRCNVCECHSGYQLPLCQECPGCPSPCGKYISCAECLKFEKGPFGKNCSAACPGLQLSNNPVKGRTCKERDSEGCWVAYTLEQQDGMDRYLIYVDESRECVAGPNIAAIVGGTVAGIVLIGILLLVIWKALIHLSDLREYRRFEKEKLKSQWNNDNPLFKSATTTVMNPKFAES
- EXPERIMENT_DESCRIPTION: LFA-1/ICAM-1 protein-protein assay (solid-phase ELISA)
- REPORTED_CONDITIONS: read-out: LFA-1/ICAM-1 Protein-Protein Assay IC50
Label key: rule met means IC50 under 4 nM; rule not met means IC50 of 4 nM or more.

- ENTRY_SMILES: "O=C(NCc1cccc(O)c1)c1cc(Cl)c(C(=O)N[C@@H](CNC(=O)c2ccc(Br)s2)C(=O)O)c(Cl)c1"
  ANSWER_LABEL: "rule met"
- ENTRY_SMILES: "O=C(NCc1cccc(O)c1)c1cc(Cl)c(C(=O)N[C@@H](CNC(=O)c2cc(O)cc(O)c2)C(=O)O)c(Cl)c1"
  ANSWER_LABEL: "rule met"
- ENTRY_SMILES: "O=C(NCc1cccc(O)c1)c1ccc(C(=O)N[C@@H](CNC(=O)C2(c3ccccc3)CC2)C(=O)O)c(Cl)c1"
  ANSWER_LABEL: "rule not met"
- ENTRY_SMILES: "O=C1CC[C@@H](C(=O)NC[C@H](NC(=O)c2c(Cl)cccc2Cl)C(=O)O)O1"
  ANSWER_LABEL: "rule not met"
- ENTRY_SMILES: "O=C(NCc1cccc(O)c1)c1ccc(C(=O)N[C@@H](CNC(=O)c2cccc([N+](=O)[O-])c2)C(=O)O)c(Cl)c1"
  ANSWER_LABEL: "rule met"

Q) Is IC50 strictly under 4 nM for the entry O=C(NCc1cccc(O)c1)c1ccc(C(=O)N[C@@H](CNC(=O)c2ccc3c(c2)S(=O)(=O)c2ccccc2C3=O)C(=O)O)c(Cl)c1 ?
A) rule met

Q) Is IC50 strictly under 4 nM for the entry O=C(NCc1cccc(O)c1)c1cc(Cl)c(C(=O)N[C@@H](CNC(=O)c2cccc(F)c2)C(=O)O)c(Cl)c1 ?
A) rule met

Q) Is IC50 strictly under 4 nM for the entry O=C(NCc1cccc(O)c1)c1ccc(C(=O)N[C@@H](CNC(=O)c2cccc(O)c2)C(=O)O)c(Cl)c1 ?
A) rule met

Q) Is IC50 strictly under 4 nM for the entry CCOc1ccc(C(=O)NC[C@H](NC(=O)c2ccc(C(=O)NCc3cccc(O)c3)cc2Cl)C(=O)O)cc1 ?
A) rule not met

Q) Is IC50 strictly under 4 nM for the entry O=C(NCc1cccc(O)c1)c1ccc(C(=O)N[C@@H](CNC(=O)C2CCCCC2)C(=O)O)c(Cl)c1 ?
A) rule met

Q) Is IC50 strictly under 4 nM for the entry COc1cc(C(=O)NC[C@H](NC(=O)c2ccc(C(=O)NCc3cccc(O)c3)cc2Cl)C(=O)O)cc(OC)c1OC ?
A) rule not met

Q) Is IC50 strictly under 4 nM for the entry COc1ccccc1C(=O)NC[C@H](NC(=O)c1ccc(C(=O)NCc2cccc(O)c2)cc1Cl)C(=O)O ?
A) rule met

Q) Is IC50 strictly under 4 nM for the entry O=C(NCc1cccc(O)c1)c1ccc(C(=O)N[C@@H](CNC(=O)c2cc(Br)cc(Br)c2)C(=O)O)c(Cl)c1 ?
A) rule not met

====

Field: pIC50. Provide a value for each of the compounds that follow.
- TARGET_DESC: LFA-1 binding to immobilized ICAM-1 (Homo sapiens, UniProt P05107+P20701)
- Construct: made in house; host or cells: transfected 293 cells (LFA-1)
- EXPERIMENT_DESCRIPTION: LFA-1/ICAM-1 protein-protein assay (solid-phase ELISA)
- REPORTED_CONDITIONS: read-out: LFA-1/ICAM-1 Protein-Protein Assay IC50
Numbers only, as −log10 of the molar value.

Worked set:
- ENTRY_SMILES: "CC(C)(N)C(=O)NC[C@H](NC(=O)c1ccc(C(=O)NCc2cccc(O)c2)cc1Cl)C(=O)O"
  TARGET_DESC: "LFA-1 binding to immobilized ICAM-1 (Homo sapiens, UniProt P05107+P20701)"
  NUMERIC_RESULT: 8.34
- ENTRY_SMILES: "Cc1ccc(C(=O)NC[C@H](NC(=O)c2ccc(C(=O)NCc3cccc(O)c3)cc2Cl)C(=O)O)cc1"
  TARGET_DESC: "LFA-1 binding to immobilized ICAM-1 (Homo sapiens, UniProt P05107+P20701)"
  NUMERIC_RESULT: 8.32
- ENTRY_SMILES: "COc1ccc(CC(=O)NC[C@H](NC(=O)c2ccc(C(=O)NCc3cccc(O)c3)cc2Cl)C(=O)O)cc1"
  TARGET_DESC: "LFA-1 binding to immobilized ICAM-1 (Homo sapiens, UniProt P05107+P20701)"
  NUMERIC_RESULT: 8.22
- ENTRY_SMILES: "O=C(NC[C@H](NC(=O)c1c(F)cccc1Cl)C(=O)O)c1ccccc1"
  TARGET_DESC: "LFA-1 binding to immobilized ICAM-1 (Homo sapiens, UniProt P05107+P20701)"
  NUMERIC_RESULT: 7.85

Value sought for every listed compound: pIC50.
1. O=C(NCc1cccc(O)c1)c1ccc(C(=O)N[C@@H](CNC(=O)c2ccccc2Cl)C(=O)O)c(Cl)c1
2. O=C(Cc1ccccc1)NC[C@H](NC(=O)c1ccc(C(=O)NCc2cccc(O)c2)cc1Cl)C(=O)O
3. Cc1cc(C(=O)NCc2cccc(O)c2)cc(Cl)c1C(=O)N[C@@H](CNC(=O)c1cc(F)cc(F)c1)C(=O)O

A)
1. 8.55
2. 8.54
3. 9.52

Where do these numbers come from? They come from patent US20040006236A1.
